The measured values listed here are drawn from patent US10407406B2.

Target: rat α3β4 nAChRs (Rattus norvegicus, UniProt P04757+P12392)
Construct: expressed in transfected cells; host or cells: HEK 293
Experiment: 86Rb+ efflux assay in cells expressing rat α3β4 nAChRs
Assay type: cell-based
Measurement Kind: EC50 (µM)
Just the number in µM, nothing appended.

Form: compound = CCCCC#Cc1cnc(C)c(OC[C@@H]2CCN2)c1 [YL-1-127] ; EC50 = 11

Next:
Form: compound = FCCCCC#Cc1cnc(F)c(OC[C@@H]2CCN2)c1 [YL-2-203, di-trifluoroacetic acid] ; EC50 = 6.3

---

Target: human α4β2 nAChRs (Homo sapiens, UniProt P17787+P43681)
Construct: expressed in transfected cells
Assay: 86Rb+ efflux assay in cells expressing human α4β2 nAChRs
Format: cell-based
Conditions: agonist activity, stimulated 86Rb+ efflux; read-out: α4β2 EC50
Measurement Kind: EC50 (µM)
Just the number in µM, nothing appended.

Form: molecule = OCCCCC#Cc1cncc(OC[C@@H]2CCN2)c1 [Sazetidine-A] ; EC50 = 0.024

---

Target: rat α3β4 nAChRs (Rattus norvegicus, UniProt P04757+P12392)
Construct: expressed in transfected cells; host or cells: HEK 293
Experiment: 86Rb+ efflux assay in cells expressing rat α3β4 nAChRs
Type: cell-based
Details: agonist activity, stimulated 86Rb+ efflux; read-out: α3β4 EC50
The following compounds are listed with their measured pEC50 values.
Notebook: values listed as pEC50 are -log10 of the concentration (mol/L).

Form: compound = OCCCCC#Cc1cncc(OC[C@@H]2CCN2)c1 ; pEC50 = 6.14

Consider now this further compound.
Form: compound = c1cnc2cc3c(cc2n1)[C@@H]1CNC[C@H]3C1 ; pEC50 = 5.49

---

Target: α4β2 nAChR (Rattus norvegicus, UniProt P09483+P12390)
Assay: [3H]-epibatidine competition binding, α4β2 nAChR in stably transfected HEK 293 cells
Details: competition against [3H]-epibatidine
Measurement Kind: Ki (nM)
Just the number in nM, nothing appended.

Example entries begin here.
So the reported Ki for FCCCCC#Cc1cnc(F)c(OC[C@@H]2CCN2)c1 [YL-2-203, di-trifluoroacetic acid] , on α4β2 nAChR (Rattus norvegicus, UniProt P09483+P12390), turned out to be 0.2

So the reported Ki for c1cnc2cc3c(cc2n1)[C@@H]1CNC[C@H]3C1 [Varenicline] , on α4β2 nAChR (Rattus norvegicus, UniProt P09483+P12390), turned out to be 0.14

So the reported Ki for CCCCC#Cc1cnc(C)c(OC[C@@H]2CCN2)c1 [YL-1-127] , on α4β2 nAChR (Rattus norvegicus, UniProt P09483+P12390), turned out to be 14

Consider now this further molecule.
So the reported Ki for OCCCCC#Cc1cncc(OC[C@@H]2CCN2)c1 [Sazetidine-A] , on α4β2 nAChR (Rattus norvegicus, UniProt P09483+P12390), turned out to be 0.034

---

Molecular target: human α4β2 nAChRs (Homo sapiens, UniProt P17787+P43681)
Construct: expressed in transfected cells
Assay: 86Rb+ efflux assay in cells expressing human α4β2 nAChRs
Type: cell-based
Measurement Kind: pEC50
Notebook: values listed as pEC50 are -log10 of the concentration (mol/L).

Form: compound = FCCCCC#Cc1cnc(F)c(OC[C@@H]2CCN2)c1 ; pEC50 = 7.46
